Sourced from ChEMBL document CHEMBL3507680

- assay-summary: Human HepG2 cell viability assay in 384 well format
- Format: toxicity, cell-based
- Design: dose 125 nL, time 70.5 hour; concentration not given beside the values
- details: HepG2 cells, read-out: Inhibition
Recorded cytotoxicity at 70.5 h by entry
measure: cytotoxicity at 70.5 h

{"structure-smiles": "CCOc1ncccc1-c1cc2c(cc1C(N)=O)OCO2", "endpoint-result": "-3.42%"}
{"structure-smiles": "CSC(C)(C)CNC(=O)NC1CCC1", "endpoint-result": "-1.66%"}
{"structure-smiles": "CCN(CC)CCNC(=O)c1ccc(Cl)c(NS(C)(=O)=O)c1", "endpoint-result": "4.61%"}
{"structure-smiles": "c1csc(CN2C[C@H](OCC3CC3)[C@H]3COC[C@H]32)n1", "endpoint-result": "-3.74%"}
{"structure-smiles": "COc1cccc(-c2nc(C)c(C(=O)N[C@@H](CC(C)C)C(=O)O)s2)c1", "endpoint-result": "-18.1%"}
{"structure-smiles": "Cc1cc(NCCCNS(C)(=O)=O)nc2ccccc12", "endpoint-result": "2.5%"}
